System: Malme-3M
Test: NCI tumour cell line growth inhibition, 48 h
Active and inactive are the calls of the source. No stated cut-off is given here; in the data, active = GI50 up to about 1.1 µM and inactive = higher.
readout_name: GI50

Below are worked cases with known answers.
Q: // query GI50 value for entry CC[C@@]1(O)C(=O)OCc2c1cc1n(c2=O)Cc2c-1nc1ccccc1c2/C=N\NC(=O)C(N)CO (some centres undefined)
A: 9.04 µM (inactive)

Q: // query GI50 value for entry "COc1ccc2c(c1)OCc1c-2oc2ccccc2c1=O"
A: > 100 µM (inactive)

Q: // query GI50 value for entry "Nc1ccccc1C#CC(=O)c1cccc(C(F)(F)F)c1"
A: 6.1 µM (inactive)

Q: // query GI50 value for entry "Cc1ccc(NC(=O)CC/C(CC(=O)C(C)(C)C)=N/Nc2nnc(C)n2N)cc1C"
A: > 100 µM (inactive)

Q: // query GI50 value for entry "Nc1ccc(Nc2cc(=O)[nH]c(=O)[nH]2)cc1Cl"
A: > 100 µM (inactive)

Q: // query GI50 value for entry CCN(CC)CCCNC(=O)C1COc2cc(-c3cc(=O)c4ccccc4o3)ccc2O1 (centres undefined)
A: 20.4 µM (inactive)

Q: // query GI50 value for entry "Cc1cc(N(C)C)ccc1/N=N/c1ccc2ncccc2c1"
A: 62.4 µM (inactive)

Q: // query GI50 value for entry "COc1ccc(-c2cc(-c3ccc(O)cc3O)c(C#N)c(=O)[nH]2)cc1"
A: 23.1 µM (inactive)

Attention now shifts to the item below.
Q: // query GI50 value for entry CN(C)/N=N/c1nc2c(c(=O)n(C)c(=O)n2C)n1CC(O)CO (centres undefined)
A: > 100 µM (inactive)

###

The following compounds are listed with their measured GI50 values.
System: EKVX
Test: NCI tumour cell line growth inhibition, 48 h
Calls of active or inactive are those of the source. No stated cut-off is given here; in the data, active = GI50 up to about 1.1 µM and inactive = higher.

Below are worked cases with known answers.
Q: // query GI50 value for entry "CSc1ccc(/C=C2\N=C(c3ccccc3)N(/N=C3\C(=O)Nc4ccccc43)C2=O)cc1"
A: 38.7 µM (inactive)

Q: // query GI50 value for entry "O=[N+]([O-])c1cc2c([N+](=O)[O-])cccc2o1"
A: 2.56 µM (inactive)

Q: // query GI50 value for entry "CN(C)CCCN1c2ccccc2Sc2cnccc21"
A: > 100 µM (inactive)

Q: // query GI50 value for entry "CC(=O)c1ccccc1NS(=O)(=O)c1ccc2nc(C)n(NS(=O)(=O)c3ccccc3C(C)=O)c(=O)c2c1"
A: > 100 µM (inactive)

Q: // query GI50 value for entry "CC(C)c1cccc2sc(NC(=O)C(=O)CC(=O)c3ccc(F)cc3)nc12"
A: > 100 µM (inactive)

Others:
Q: // query GI50 value for entry CCCCCCCCCC[C@@H](O)[C@H]1CC[C@H]([C@H]2CC[C@H]([C@H](O)CCCCCCCCCC[C@@H]3CC(CC(C)=O)C(=O)O3)O2)O1 (some centres undefined)
A: 7.43 µM (inactive)

Q: // query GI50 value for entry Cc1cc(C)c2c(c1)C(=O)C1(C2)Cc2c(ccc(C)c2C)C1=O (centres undefined)
A: > 100 µM (inactive)

Q: // query GI50 value for entry "O=C(O)C(F)(F)C(F)(F)C(F)(F)C(F)(F)C(=O)O"
A: > 100 µM (inactive)

Q: // query GI50 value for entry "O=C1C(=Cc2ccc([N+](=O)[O-])o2)C(=O)N(CCc2ccccc2)S(=O)(=O)N1CCc1ccccc1"
A: > 100 µM (inactive)
